procedure_summary: chemical genetic growth profiling, strain panel (AID 1159580);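 further: tested at 20 µM; growth read once vehicle control cultures reached saturation at 30 °C; 1 = growth at the plate median or of vehicle wells; lower values mean less growth of the strain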
recorded_conditions: S. cerevisiae deletion strains, growth OD, locus YBR279W, strain paf1
Among all 5,500 compounds or so, about 2,000 (36%) were called active. Inconclusive results (about 18%) are left out. No stated cut-off is given here; in the data, active means normalized growth mostly below about 0.91 (no sharp cut-off); inconclusive means no clear call, values can overlap the other calls; inactive means mostly above about 0.92. This is one part of the list. Where a SMILES comes first, the peptide text is derived from it.
Please reply with one of these outcomes: class 1 for active, class 0 for inactive

Before answering, review these 8 worked examples.
- compound: "COc1ccc2c(c1)OCC(Cc1ccc(OC)c(OC)c1)C2=O (stereo unspecified)"
  assigned_class: "class 0"
- compound: "COc1ccc2c(c1)OCC(Cc1ccc(OC)c(O)c1)C2=O (stereo unspecified)"
  assigned_class: "class 0"
- compound: "Clc1ccc(CSC(Cn2ccnc2)c2ccc(Cl)cc2Cl)cc1 (stereo unspecified)"
  assigned_class: "class 1"
- compound: "CC(=O)N[C@@H](CC(=O)O)C(=O)N[C@@H](CCC(=O)O)C(=O)O (Ac-Asp-Glu-OH)"
  assigned_class: "class 0"
- compound: "Cc1cc(/C=C/c2ccc3cc(N(C)C)ccc3[n+]2C)c(C)n1-c1ccccc1"
  assigned_class: "class 1"
- compound: "CC(O)(P(=O)(O)O)P(=O)(O)O"
  assigned_class: "class 0"
- compound: "COP(=S)(OC)Oc1ccc([N+](=O)[O-])cc1"
  assigned_class: "class 0"
- compound: "COC(=O)[C@H](c1ccccc1Cl)N1CCc2sccc2C1"
  assigned_class: "class 0"

Name the outcome recorded for COc1ccc2c(c1)OCC(Cc1ccc(OC)c(OC(C)=O)c1)C2=O (stereo unspecified) in the assay.
class 0

Name the outcome recorded for Nc1nc(F)nc2c1ncn2[C@@H]1O[C@H](COP(=O)(O)O)[C@@H](O)[C@@H]1O in the assay.
class 0

Name the outcome recorded for Clc1ccc(CO/N=C(/Cn2ccnc2)c2ccc(Cl)cc2Cl)c(Cl)c1 in the assay.
class 1

* * *

Provide the recorded normalized growth for the entries that follow.
procedure_summary: chemical genetic growth profiling, strain panel (AID 1159580);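 further: tested at 20 µM; growth read once vehicle control cultures reached saturation at 30 °C; 1 = growth at the plate median or of vehicle wells; lower values mean less growth of the strain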
recorded_conditions: S. cerevisiae deletion strains, growth OD, locus YLR058C, strain SHM2 (second series), active compounds read low
The campaign covered roughly 5,500 compounds. About 2,000 (36%) were called active. Inconclusive results (about 18%) are left out. The list shows a part of the results.
Answers are plain numbers.

Please look at the items below and tell me normalized growth for each one, in order.
1. CC(=O)c1ccc(N2C(=O)CSCC2=O)cc1
2. NC(=O)N[C@@H]1O[C@H](CO)[C@@H](O)[C@H](O)[C@H]1O
3. O=S(=O)(NCC1CC1)c1ccc(F)c(Cl)c1
4. CCCN(CCC)S(=O)(=O)c1ccc(C(=O)NCC(=O)O)cc1
5. O=C1C2C3C=CC(C3)C2C(=O)N1c1ccc(F)c(F)c1 (stereo not drawn)
6. CC(C)(C)NC(=S)NC1CCN(Cc2ccccc2)CC1
7. CCOC(=O)CNc1ccc(Cl)c(Cl)c1
8. O=C1NC2(CCN(Cc3ccccc3)CC2)Oc2ccccc21

1: 0.999; 2: 1.01; 3: 1; 4: 1.01; 5: 0.981; 6: 0.983; 7: 0.97; 8: 0.972

* * *

procedure_summary: chemical genetic growth profiling, strain panel (AID 1159580);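 further: tested at 20 µM; growth read once vehicle control cultures reached saturation at 30 °C; 1 = growth at the plate median or of vehicle wells; lower values mean less growth of the strain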
recorded_conditions: S. cerevisiae deletion strains, growth OD, locus YCL016C, strain dcc1, active compounds read low
The campaign covered roughly 5,500 compounds. About 2,000 (36%) were called active. Another 18% or so got no clear call; they are omitted. The list shows a part of the results. Where a SMILES comes first, the peptide text is derived from it.
property_name: normalized growth
Answers are plain numbers.

Example entries begin here.
- compound: "c1ccc2c(CC3=NCCN3)cccc2c1"
  normalized growth: 0.996
- compound: "Clc1ccc(CSC(Cn2ccnc2)c2ccc(Cl)cc2Cl)cc1 (stereo unspecified)"
  normalized growth: 0.0681
- compound: "CC(=O)N[C@@H](CC(=O)O)C(=O)N[C@@H](CCC(=O)O)C(=O)O (Ac-Asp-Glu-OH)"
  normalized growth: 0.998

Please look at the items below and tell me normalized growth for each one, in order.
1. NC(=O)CS(=O)C(c1ccccc1)c1ccccc1 (stereo unspecified)
2. Clc1ccc(COC(Cn2ccnc2)c2ccc(Cl)cc2Cl)c(Cl)c1 (stereo unspecified)
3. Oc1c(Cl)cc(Cl)c(Cl)c1Cc1c(O)c(Cl)cc(Cl)c1Cl
4. Cc1onc(-c2ccccc2)c1-c1ccc(S(N)(=O)=O)cc1
5. Cc1cc(CC(=O)O)n(C)c1C(=O)c1ccc(Cl)cc1

[1.04, 0.0647, 0.0684, 1.02, 1.04]

Please look at the items below and tell me normalized growth for each one, in order.
1. Clc1ccc(CO/N=C(/Cn2ccnc2)c2ccc(Cl)cc2Cl)c(Cl)c1
2. Cc1ccc(C(=O)c2ccc(CC(=O)O)n2C)cc1
3. C=C1C(=O)[C@]23[C@H](O)[C@H]1CC[C@H]2[C@@]12CO[C@]3(O)[C@H](O)[C@@H]1C(C)(C)CC[C@@H]2O

[0.0718, 0.996, 0.972]

All figures here come from PubChem BioAssay AID1159580.
